Reference for the values: patent US11629139B2

- Test Method Notes: in vivo
- Condition Context: mouse, po
Result Type: half-life (h)
Field format: number, assumed h, no unit text.

Please report half-life for the following compound: CS(=O)(=O)c1ccc(COc2ccc(Cl)cc2CN2CCN(C(=O)CNC(=O)C3CC34CCC(F)(F)CC4)CC2)cc1 (stereo not shown) [Compound 1476] 6.1

====

- Test Method Notes: in vitro
- Condition Context: mouse, microsomes, pH 7.4, T1/2(min)
Result Type: half-life (min)
Report the value in min with no unit label.

Some compounds with known half-life results, for comparison:
> print(dat)
                                   compound  scale.unit  recorded.result
1  [2H]C([2H])(c1cc(Cl)ccc1N)N1CCN(C(=O)CNC(=O)CC2CCC(F)(F)CC2)CC1 [Compound 1412]         min               13
2  Nc1ccc(Cl)cc1CN1CCN(C(=O)CNC(=O)C2CC23CCC(F)(F)CC3)CC1 (stereo not shown) [Compound 1373]         min              1.3
3  [2H]C([2H])(c1cc(Cl)ccc1N)N1CCN(C(=O)CNC(=O)C2CC23CCC(F)(F)CC3)CC1 (stereo not shown) [Compound 1413]         min                2

Moving on to the next compound.
Determine its reported half-life: Nc1ccc(Cl)cc1CN1CCN(C(=O)CNC(=O)CC2CCC(F)(F)CC2)CC1 [Compound 1343] 8.7

====

- Tested on: vesicular stomatitis virus particles (VSV) pseudotyped with EboV Zaire GP
- Test Method Notes: microbe, parasite or virus in culture
- Type: cell-based
- Condition Context: Vesicular stomatitis virus
Result Type: pIC50
Note on units: pIC50 is unitless, being -log10 of a concentration expressed in mol/L.

Guide cases for pIC50, answers given:
> print(dat)
                                   compound  recorded.result
1  O=C(CC12CC3CC(CC(C3)C1)C2)NCC(=O)N1CCN(Cc2c(F)ccc(Cl)c2F)CC1 [Compound 1306]             5.87
2  O=C(CC12CC3CC(CC(C3)C1)C2)NCC(=O)N1CCN(Cc2cc(Cl)ccc2Br)CC1 [Compound 1351]             5.96
3  CNC(=O)c1ccc(COc2ccccc2CN2CCN(C(=O)CNC(=O)CC34CC5CC(CC(C5)C3)C4)CC2)cc1 [Compound 1801]             5.68
4  NC(=O)c1ccc(Br)cc1CN1CCN(C(=O)CNC(=O)CC23CC4CC(CC(C4)C2)C3)CC1 [Compound 1364]             5.72
5  Nc1c(Cl)cc(Cl)cc1CN1CCN(C(=O)CNC(=O)CC23CC4CC(CC(C4)C2)C3)CC1 [Compound 1349]             6.30

Then there is this compound:
Report the value of pIC50 obtained on vesicular stomatitis virus particles (VSV) pseudotyped with EboV Zaire GP for CNS(=O)(=O)c1ccc(COc2ccccc2CN2CCN(C(=O)CNC(=O)CC34CC5CC(CC(C5)C3)C4)CC2)cc1 [Compound 1257] . 6.52

====

- Condition Context: plasma
Mouse PPB (% bound) for assorted compounds
Give the value, in units of %, as a plain number.

A selection of reference data follows.
Compound	Recorded Result
CS(=O)(=O)c1ccc(COc2ccc(Cl)cc2CN2CCN(C(=O)CNC(=O)C3CC34CCC(F)(F)CC4)CC2)cc1 (single isomer, unassigned; (-)) [(−)-1476]	97.6
Nc1ccc(Cl)cc1CN1CCN(C(=O)CNC(=O)CC2CCC(F)(F)CC2)CC1	86.9
[2H]C([2H])(c1cc(Cl)ccc1N)N1CCN(C(=O)CNC(=O)C2CC23CCC(F)(F)CC3)CC1 (single isomer, unassigned; (-)) [(−)-1413]	87.9

# ---- query compound ----
Tell me its Mouse PPB (% bound) given [2H]C([2H])(c1cc(Cl)ccc1NCc1ccc(S(C)(=O)=O)cc1)N1CCN(C(=O)CNC(=O)C2CC23CCC(F)(F)CC3)CC1 (single isomer, unassigned; (-)) [(−)-1503] as the entry. 99.8
